Reported inhibition values for the following compounds.
assay: growth inhibition of yeast control strain, primary screen, counter-screen for post-Golgi transport modulator project (AID 738); conditions: efflux-deficient yeast background strain, growth absorbance A615, 16 h; at 10 µM; active compounds read high
Out of some 98,000 compounds screened, about 4,900 (5%) were called active. Shown is part of a subset that was picked to be rich in actives.
Number in %, nothing else.

{"COMPOUND": "COc1ccc(C(=O)C2CN(C)CC2C(=O)c2ccc(OC)cc2)cc1 (stereo not drawn)", "DISPLAY UNIT": "%", "inhibition": 20.5}

Query: # return recorded inhibition for entry `Cn1c(O)c(C=NCCCC(=O)O)c(=O)n(C)c1=O`
Response: 2.29

Query: # return recorded inhibition for entry `CCC(=NCCCO)c1c(O)n(-c2ccc(OC)cc2)c(=O)[nH]c1=O`
Response: 3.64

Query: # return recorded inhibition for entry `O=C(CN1CCCCC1)Nc1ccc(Br)cc1C(=O)c1ccccc1Cl`
Response: 29.2

Query: # return recorded inhibition for entry `CCC(=NCCc1ccccc1)c1c(O)n(C2CCCCC2)c(=O)[nH]c1=O`
Response: 70.8

Query: # return recorded inhibition for entry `CCCCCCN=C(CC)c1c(O)n(CCCC)c(=O)[nH]c1=O`
Response: 36.3

Query: # return recorded inhibition for entry `COc1ccccc1-n1c(O)c(C=NC2CC2)c(=O)[nH]c1=O`
Response: 6.8

Query: # return recorded inhibition for entry `Cc1nc2ccccn2c1P(=S)(N1CCCCC1)N1CCCCC1`
Response: 49.1

Query: # return recorded inhibition for entry O=[N+]([O-])c1ccc(C2C3C(c4ccccc4)=NC4(CCCCC4)N32)cc1 (stereo not drawn)
Response: 18

Query: # return recorded inhibition for entry `CCC(=NCc1ccco1)c1c(O)n(Cc2ccccc2)c(=O)[nH]c1=O`
Response: 15.9

Query: # return recorded inhibition for entry `Cc1ccc(Cn2c(C)c3cnn(CC(=O)N4CCC5(CC4)OCCO5)c(=O)c3c2C)cc1`
Response: -1.49

Query: # return recorded inhibition for entry `CC(=O)c1c(O)n(C2CCCCCC2)c(=O)[nH]c1=O`
Response: 19.8

Query: # return recorded inhibition for entry CC(=O)c1ccc(OC(NC(=O)Cc2ccccc2)C(Cl)(Cl)Cl)cc1 (stereo not drawn)
Response: 4.53
